Biological target: Lysophosphatidic acid receptor 1 (Homo sapiens)
Sequence (Q92633 whole entry): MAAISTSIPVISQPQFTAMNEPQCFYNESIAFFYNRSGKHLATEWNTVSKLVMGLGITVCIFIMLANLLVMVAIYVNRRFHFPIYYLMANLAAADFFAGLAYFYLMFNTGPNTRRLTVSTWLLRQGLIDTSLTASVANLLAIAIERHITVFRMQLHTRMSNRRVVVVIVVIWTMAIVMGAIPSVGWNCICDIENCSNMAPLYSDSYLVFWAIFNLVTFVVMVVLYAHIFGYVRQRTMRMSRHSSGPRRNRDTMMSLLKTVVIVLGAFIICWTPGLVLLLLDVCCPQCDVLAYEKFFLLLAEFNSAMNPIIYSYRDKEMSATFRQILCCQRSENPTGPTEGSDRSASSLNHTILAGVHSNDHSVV
Test: Agonistic activity against lysophosphatidic acid receptor 1 receptor using [35S]GTP-gamma-S as radioligand tested in vitro
Type: functional
Property: EC50
Answer as a quantity: numeral, then unit.

Query: What does the record list as EC50 for CCCCCCCC/C=C\CCCCCCCC(=O)NCCC(O)P(=O)(O)O (stereo unspecified) ?
Result: 1.23 µM

----------
Target: Lysophosphatidic acid receptor 2 (Homo sapiens)
Sequence (Q9HBW0 whole entry): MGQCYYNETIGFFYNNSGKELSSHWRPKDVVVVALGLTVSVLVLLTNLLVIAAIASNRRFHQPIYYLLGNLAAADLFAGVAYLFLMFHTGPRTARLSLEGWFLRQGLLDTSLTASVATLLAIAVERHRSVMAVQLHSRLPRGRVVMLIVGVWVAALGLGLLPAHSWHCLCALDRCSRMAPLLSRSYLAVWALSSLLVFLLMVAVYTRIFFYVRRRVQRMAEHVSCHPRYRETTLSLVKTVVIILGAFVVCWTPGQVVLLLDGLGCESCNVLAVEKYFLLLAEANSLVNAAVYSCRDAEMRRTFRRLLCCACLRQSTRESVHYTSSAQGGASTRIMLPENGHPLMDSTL
Test: Agonistic activity against lysophosphatidic acid receptor 2 using [35S]GTP-gamma-S as radioligand tested in vitro
Property: EC50 (µM)
State the answer as a number, implicitly in µM.

>>> measured_value("CCCCCCCC/C=C\\CCCCCCCC(=O)NCCC(=O)P(O)(O)=S")
0.108

Query: What does the record list as EC50 for CCCCCCCC/C=C\CCCCCCCC(=O)NCCC(O)P(=O)(O)O (configuration not stated) ?
Result: 2.07

Query: Try this molecule next: `CCCCCCCC/C=C\CCCCCCCC(=O)NCCC(=O)P(=O)(O)O`
Result: 1.09

Query: Try this molecule next: CCCCCCCC/C=C\CCCCCCCC(=O)NCCC(F)P(=O)(O)O (configuration not stated)
Result: 1.96
